For each of the molecules below, state its GI50.
Test system: SW-620
method: NCI tumour cell line growth inhibition, 48 h
The source made the active and inactive calls. Rule as the data show it: active = GI50 up to about 1.1 µM and inactive = higher.

Worked examples, 4 molecules total:
1) Cn1c(COC(=O)NC2CCCCC2)c(COC(=O)NC2CCCCC2)c2ccc3cc(Cl)c(Cl)cc3c21 :: 6.79 µM (inactive)
2) CC(O)CCCCC(O)CCC[C@H](O)[C@H]1CCC([C@H]2CCC([C@@H](O)CCCCCCCCCCCCC3=C[C@H](C)OC3=O)O2)O1 (stereo not given in full) :: 12.8 µM (inactive)
3) C=C(C(=O)O)[C@@H]1C[C@@H]2O[C@H]1CC(C)=CCC/C(C)=C/CC[C@@]2(C)O :: > 100 µM (inactive)
4) COC(=O)C(=O)C(C(=O)Nc1cccc(C)c1C)C1Sc2ccccc2NC1=O (stereo not given) :: 8.55 µM (inactive)

Query block: GET /values?readout=GI50&item= `O=C(Nc1ccc(S(=O)(=O)N[C@@H](C(=O)O)c2ccccc2)cc1)c1ccc(F)cc1`
Result block: > 100 µM (inactive)
